Listed below: IC90 values for each entry.
- experimental-target: human sEH (Homo sapiens, UniProt P34913)
- Construct: made in house; host or cells: baculovirus expression system
- Sequence (P34913 whole entry): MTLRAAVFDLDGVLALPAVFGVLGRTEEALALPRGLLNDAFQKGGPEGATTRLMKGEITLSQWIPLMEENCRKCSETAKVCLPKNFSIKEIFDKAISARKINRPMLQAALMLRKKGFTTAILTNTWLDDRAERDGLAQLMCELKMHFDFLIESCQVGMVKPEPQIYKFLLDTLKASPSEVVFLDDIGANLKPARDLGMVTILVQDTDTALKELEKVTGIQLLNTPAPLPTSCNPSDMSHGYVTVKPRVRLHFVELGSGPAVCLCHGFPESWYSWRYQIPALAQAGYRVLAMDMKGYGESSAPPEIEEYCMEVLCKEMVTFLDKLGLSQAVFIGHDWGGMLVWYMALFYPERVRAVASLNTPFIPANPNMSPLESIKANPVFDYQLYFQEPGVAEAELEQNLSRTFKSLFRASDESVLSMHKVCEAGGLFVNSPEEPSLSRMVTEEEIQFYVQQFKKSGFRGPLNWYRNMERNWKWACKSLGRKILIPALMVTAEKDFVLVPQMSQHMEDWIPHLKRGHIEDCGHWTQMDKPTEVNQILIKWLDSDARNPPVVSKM
- assay-procedure: Inhibition of recombinant human sEH, IC50 assay with 4-nitrophenyl-trans-2,3-epoxy-3-phenylpropyl carbonate as substrate
- Type: biochemical
- experimental-conditions: Table 5; 0.24 μM enzyme, 5 min preincubation, pH 7.4, 30° C.; means ± SD
Answer in µM, number only, no unit symbol.

Enquiry: So what does the record say about IC90 for `CCOC(=O)CCCCCCCCCOC(=O)CCCNC(=O)NC12CC3CC(CC(C3)C1)C2` ?
Return: 0.68

Enquiry: Now give it for `CCOC(=O)CCCCCCCCCCCOC(=O)CCCNC(=O)NC12CC3CC(CC(C3)C1)C2` too.
Return: 1.8

====

- experimental-target: human sEH (Homo sapiens, UniProt P34913)
- Construct: made in house; host or cells: baculovirus expression system
- assay-procedure: Inhibition of recombinant human sEH, IC50 assay with 4-nitrophenyl-trans-2,3-epoxy-3-phenylpropyl carbonate as substrate
- Type: biochemical
- experimental-conditions: Table 9; established protocols; read-out: IC50 (μM) Human sEH
Listed below: IC50 values for each entry.

Worked cases, IC50 given:
CCCCCNC(=O)C1CCCC(NC(=O)NC23CC4CC(CC(C4)C2)C3)C1 (centres unmarked): 0.1 µM
CC(C)=CCC/C(C)=C/COC1CCC(NC(=O)NC23CC4CC(CC(C4)C2)C3)CC1 (centres unmarked): 0.1 µM
CCCCCOC(=O)c1cccc(NC(=O)NC23CC4CC(CC(C4)C2)C3)c1: 0.1 µM

Enquiry: So what does the record say about IC50 for CC(C)=CCOC1CCC(NC(=O)NC23CC4CC(CC(C4)C2)C3)CC1 (centres unmarked) ?
Return: 0.1 µM

Enquiry: Now give it for CCOC(=O)c1ccc(C(C#N)OC(=O)C2CCCC(NC(=O)NC34CC5CC(CC(C5)C3)C4)C2)cc1 (centres unmarked) [Compound 1014] too.
Return: 0.14 µM

Enquiry: Now give it for CCOC(=O)CCCCCCOC1CCC(NC(=O)NC23CC4CC(CC(C4)C2)C3)CC1 (centres unmarked) too.
Return: 0.1 µM

Enquiry: Now give it for CCCCCOC(=O)C1CCC(NC(=O)NC23CC4CC(CC(C4)C2)C3)CC1 (centres unmarked) too.
Return: 0.12 µM

Enquiry: Now give it for `CCCCCOC(=O)c1ccc(NC(=O)NC23CC4CC(CC(C4)C2)C3)cc1` too.
Return: 0.1 µM

====

- experimental-target: mouse sEH (Mus musculus)
- Construct: made in house; host or cells: baculovirus expression system
- Sequence (P34914 whole entry): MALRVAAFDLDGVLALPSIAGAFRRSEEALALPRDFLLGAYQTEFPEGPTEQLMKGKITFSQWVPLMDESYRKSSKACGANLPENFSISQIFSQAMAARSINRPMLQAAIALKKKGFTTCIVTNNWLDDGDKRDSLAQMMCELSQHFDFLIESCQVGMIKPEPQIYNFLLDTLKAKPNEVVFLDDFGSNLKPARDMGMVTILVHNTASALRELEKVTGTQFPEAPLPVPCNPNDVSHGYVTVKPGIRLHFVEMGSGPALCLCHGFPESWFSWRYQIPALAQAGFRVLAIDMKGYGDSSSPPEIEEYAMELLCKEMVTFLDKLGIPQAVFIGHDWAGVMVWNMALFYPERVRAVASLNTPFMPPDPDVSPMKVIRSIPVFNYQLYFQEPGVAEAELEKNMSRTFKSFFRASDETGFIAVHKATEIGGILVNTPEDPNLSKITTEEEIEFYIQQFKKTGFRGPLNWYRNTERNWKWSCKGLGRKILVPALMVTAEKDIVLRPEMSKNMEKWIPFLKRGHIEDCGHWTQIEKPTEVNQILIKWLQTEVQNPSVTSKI
- assay-procedure: Inhibition of recombinant mouse sEH, IC50 assay with 4-nitrophenyl-trans-2,3-epoxy-3-phenylpropyl carbonate as substrate
- Type: biochemical
- experimental-conditions: Tables 17a and b; read-out: IC50 (μM) Mouse sEH
reported-metric: IC50 (µM)
Answer in µM, number only, no unit symbol.

Worked cases, IC50 given:
O=C(CC1CCCCC1)Nc1ccccc1: 3.7
CSC(NC(=O)C(NC(=O)CCCNC(=O)NC12CC3CC(CC(C3)C1)C2)c1c[nH]cn1)C(=O)O (centres unmarked): 0.05
CCCCC(C)OC(=O)CCCNC(=O)NC12CC3CC(CC(C3)C1)C2 (centres unmarked): 0.05
O=C(NCCCN1CCOCC1)NC12CC3CC(CC(C3)C1)C2: 0.05

# context switch: different compound, same IC50
Enquiry: Item: CCCCC1COC(Nc2cccc(Cl)c2)=N1 (centres unmarked) Test system: mouse sEH (Mus musculus) Read-out: IC50 Value: ?
Return: 49
